Entries and their MIC
- Tested on: S. aureus MF490
parameter: MIC (µg/mL)

compound	target entity	data value
CNC1C(O[C@H]2OC(CO)[C@@H](NC(=O)[C@@H](C)N)[C@H](O)C2O)O[C@H]2CC(N)[C@@H](O[C@@H]3C(N)C[C@@H](N)C(O)[C@H]3O)OC2C1O (stereo partly drawn) [Compound V1-d, 4″-N-(D-alanyl)apramycin]	S. aureus MF490	16
CNCC(=O)N[C@@H]1C(CO)O[C@H](OC2O[C@H]3C[C@H](N)[C@@H](O[C@@H]4C(N)C[C@@H](N)C[C@H]4O)OC3C(O)C2NC)C(O)[C@H]1O (stereo partly drawn) [Compound V1-p, 6-deoxy-5-epi-4″-N-sarcosylapramycin]	S. aureus MF490	4
CNC1C(O[C@H]2OC(C)[C@@H](NC(=N)N)[C@H](O)C2O)O[C@H]2CC(N)[C@@H](O[C@H]3CC(O)[C@H](N)CC3N)OC2C1O (some centres unmarked) [Compound S1-q]	S. aureus MF490	4
CNC1C(O[C@H]2OC(C)[C@@H](NC(CN)CN)[C@H](O)C2O)O[C@H]2CC(N)[C@@H](O[C@H]3CC(O)[C@H](N)CC3N)OC2C1O (some centres unmarked) [Compound S1-p]	S. aureus MF490	2
CNC1C(O[C@H]2OC(CO)[C@@H](NC(=O)CCN)[C@H](O)C2O)O[C@H]2CC(N)[C@@H](O[C@@H]3C(N)C[C@@H](N)C(O)[C@H]3O)OC2C1O (stereo partly drawn) [Compound V1-g, 4″-N-(β-alanyl)apramycin]	S. aureus MF490	8

Cited source for all entries: patent US11135234B2
